Numbers sourced from PubChem BioAssay AID1159580.

# experiment: chemical genetic growth profiling, strain panel (AID 1159580);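 note: tested at 20 µM; growth read once vehicle control cultures reached saturation at 30 °C; 1 = growth at the plate median or of vehicle wells; lower values mean less growth of the strain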
# setup conditions: S. cerevisiae deletion strains, growth OD, locus YNL183C, strain NPR1
Screen size: about 5,500 compounds; about 2,000 (36%) were called active. About 18% were inconclusive and are not listed. Cut-off read from the data, not from the text of the source: active = normalized growth mostly below about 0.91 (no sharp cut-off); inconclusive = no clear call, values can overlap the other calls; inactive = mostly above about 0.92. This is one part of the list.
Write down one outcome, taken from active, inactive

# example entries with known answers
CCCCC/C=C/CCC(=O)N[C@H]1[C@H](Oc2c3cc4cc2Oc2ccc(cc2Cl)[C@@H](O[C@@H]2O[C@H](CO)[C@@H](O)[C@H](O)[C@H]2NC(C)=O)[C@@H]2NC(=O)[C@H](NC(=O)[C@@H]4NC(=O)[C@H]4NC(=O)C(Cc5ccc(c(Cl)c5)O3)NC(=O)[C@H](N)c3ccc(O)c(c3)Oc3cc(O)cc4c3)c3ccc(O)c(c3)-c3c(OC4O[C@H](CO)[C@@H](O)[C@H](O)[C@@H]4O)cc(O)cc3[C@@H](C(=O)O)NC2=O)O[C@H](CO)[C@@H](O)[C@@H]1O (stereo partly drawn) : inactive
O=[N+]([O-])c1ccc(-c2noc(-c3ccno3)n2)o1 : active
CC(C)(C)c1ccc(C(=N)SC(C(=O)C(F)(F)F)c2ccccc2)cc1 (stereo not drawn) : inactive
COc1cc(CNC(=O)CCCC/C=C/C(C)C)ccc1O : inactive
Cc1ncc(CNC(=O)N(CCCl)N=O)c(N)n1 : inactive

Prompt line: For Oc1cc(O)c2c(c1)O[C@H](c1ccc(O)c(O)c1)[C@H](O)C2 , what call appears in the results of this test?
Response line: inactive

Prompt line: For CC[C@]1(O)CC2CN(CCc3c([nH]c4ccccc34)[C@@](C(=O)OC)(c3cc4c(cc3OC)N(C)[C@H]3[C@@](O)(C(=O)OC)[C@H](OC(C)=O)[C@]5(CC)C=CCN6CC[C@]43[C@@H]65)C2)C1 (stereo partly drawn) , what call appears in the results of this test?
Response line: inactive

Prompt line: For N/C(Cn1ccc(C(F)(F)F)n1)=N/OS(=O)(=O)c1cccc(Cl)c1Cl , what call appears in the results of this test?
Response line: inactive

* * *

# experiment: chemical genetic growth profiling, strain panel (AID 1159580)
# setup conditions: S. cerevisiae deletion strains, growth OD, locus YAL030W, strain snc1, hits give low values
Among all 5,500 compounds or so, about 2,000 (36%) were called active. Roughly 18% stayed inconclusive and do not appear here. The list shows a part of the results.
measure name: normalized growth
API doc: respond with a numeric literal and nothing else, no unit.

Sample records with normalized growth:
CN1C2CCC1CC(OC(c1ccccc1)c1ccccc1)C2 (stereo not given) : 0.985
O=c1cccc2ccc(O)c(O)c2c1O : 0.948
CCN(CC)Cc1ccc(Nc2ccnc3cc(Cl)ccc23)cc1O : 1

Prompt line: Value lookup for normalized growth; key = O=C1CCC(N2C(=O)c3ccccc3C2=O)C(=O)N1 (stereo not given)
Response line: 1.01

Prompt line: Value lookup for normalized growth; key = COC(=O)c1cc(=O)c(O)c2c(O)c(O)ccc2c1
Response line: 0.991

* * *

# experiment: chemical genetic growth profiling, strain panel (AID 1159580)
# setup conditions: S. cerevisiae deletion strains, growth OD, locus YNL307C, strain MCK1 (second series)
The campaign covered roughly 5,500 compounds. About 2,000 (36%) were called active. Not shown: some 18% with an inconclusive outcome. No stated cut-off is given here; in the data, active means normalized growth mostly below about 0.91 (no sharp cut-off); inconclusive means no clear call, values can overlap the other calls; inactive means mostly above about 0.92. The list shows a part of the results.
Write down one outcome, taken from 1.0 for active, 0.0 for inactive

COc1cccc(C2CCN(C(=O)c3cccc4ccccc34)CC2)c1 : 0.0

Prompt line: For CC(C)(C)c1ccc(C(=N)SC(C(=O)C(F)(F)F)c2ccccc2)cc1 (centres undefined) , what call appears in the results of this test?
Response line: 0.0

Prompt line: For Cc1ccc(S(=O)(=O)NC(=O)Nc2ccc(Sc3ccccc3)nc2Sc2ccccc2)cc1 , what call appears in the results of this test?
Response line: 0.0

Prompt line: For Cc1c(C(=O)Sc2ccc(F)cc2F)sc2nc(C(F)(F)F)nn12 , what call appears in the results of this test?
Response line: 1.0

Prompt line: For O=C(NCc1ccc(Cl)c(Cl)c1)c1cccnc1OCC(F)(F)F , what call appears in the results of this test?
Response line: 0.0

Prompt line: For N/C(CCSc1ccc(Cl)cc1)=N/OC(=O)Nc1ccc(Cl)cc1 , what call appears in the results of this test?
Response line: 1.0

Prompt line: For COc1cc(Cl)ccc1N/N=C(/C#N)C(N)=O , what call appears in the results of this test?
Response line: 1.0

Prompt line: For Fc1cc(I)ccc1Nc1ccnc2cc(Cl)ccc12 , what call appears in the results of this test?
Response line: 0.0

* * *

# experiment: chemical genetic growth profiling, strain panel (AID 1159580);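 note: tested at 20 µM; growth read once vehicle control cultures reached saturation at 30 °C; 1 = growth at the plate median or of vehicle wells; lower values mean less growth of the strain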
# setup conditions: S. cerevisiae deletion strains, growth OD, locus YNL322C, strain KRE1, hits give low values
The whole screen tested about 5,500 compounds, of which about 2,000 (36%) were called active. Another 18% or so got no clear call; they are omitted. Some of the results follow.
measure name: normalized growth
API doc: respond with a numeric literal and nothing else, no unit.

CN1C2CCC1CC(OC(c1ccccc1)c1ccccc1N)C2 (stereo not drawn) : 0.996
CN1C2CCC1CC(OC(c1ccccc1)c1ccccc1)C2 (stereo not drawn) : 0.973
CSc1c(-c2ccccc2)c(N)nn1S(=O)(=O)c1ccccc1 : 0.987
CN1C2CCC1CC(OC(=O)c1cc(Cl)cc(Cl)c1)C2 (stereo not drawn) : 0.996
O=C(CC1NCCN(Cc2ccccc2)C1=O)Nc1ccc(Cl)cc1 (stereo not drawn) : 0.996

Prompt line: Value lookup for normalized growth; key = O=C1c2ccccc2C(=O)C1(c1ccccc1)[N+](=O)[O-]
Response line: 1.01

Prompt line: Value lookup for normalized growth; key = Cc1ccc(C(=O)Nc2ccc(S(=O)(=O)O)c3cc(S(=O)(=O)O)cc(S(=O)(=O)O)c23)cc1NC(=O)c1cccc(NC(=O)Nc2cccc(C(=O)Nc3cc(C(=O)Nc4ccc(S(=O)(=O)O)c5cc(S(=O)(=O)O)cc(S(=O)(=O)O)c45)ccc3C)c2)c1
Response line: 1.04

Prompt line: Value lookup for normalized growth; key = CC(C)(C)NCC(O)COc1cccc2[nH]c(=O)[nH]c12 (stereo not drawn)
Response line: 1.03

* * *

# experiment: chemical genetic growth profiling, strain panel (AID 1159580);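 note: tested at 20 µM; growth read once vehicle control cultures reached saturation at 30 °C; 1 = growth at the plate median or of vehicle wells; lower values mean less growth of the strain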
# setup conditions: S. cerevisiae deletion strains, growth OD, locus YOR069W, strain VPS5, hits give low values
Out of some 5,500 compounds screened, about 2,000 (36%) were called active. Not shown: some 18% with an inconclusive outcome. The list shows a part of the results.
measure name: normalized growth

CCCCNC(=O)NS(=O)(=O)c1ccc(C)cc1 : 0.985 (inactive)
Cc1ccc(S(=O)(=O)NC(=O)NN2CCCCCC2)cc1 : 0.994 (inactive)
COc1ccc2c(c1)OC/C(=C/c1ccc(OC)c(OC)c1)C2=O : 1 (inactive)
CC(C)NCC(O)COc1cccc2[nH]ccc12 (stereo not given) : 0.991 (inactive)
COc1cc2c(cc1OC)C(=O)c1ccc(OC)c(OC)c1OCC(=O)C2 : 1 (inactive)
CCC[C@H](N[C@@H](C)C(=O)N1[C@H](C(=O)O)C[C@@H]2CCCC[C@@H]21)C(=O)OCC : 1 (inactive)

Prompt line: Value lookup for normalized growth; key = COc1cc([C@@H]2c3cc4c(cc3C(OC3O[C@@H]5COC(C)O[C@H]5[C@H](O)[C@H]3O)C3COC(=O)[C@@H]32)OCO4)cc(OC)c1O (stereo not given in full)
Response line: 0.991 (inactive)

Prompt line: Value lookup for normalized growth; key = COc1ccc(C(=O)CC(=O)O)c2c1C=CC(C)(C)O2
Response line: 0.989 (inactive)

Prompt line: Value lookup for normalized growth; key = CC[C@@]1(O)C[C@H](O[C@H]2C[C@H](N(C)C)[C@H](O)[C@H](C)O2)c2c(cc3c(c2O)C(=O)c2c(O)ccc(O)c2C3=O)[C@H]1C(=O)OC
Response line: 0.0745 (active)

Prompt line: Value lookup for normalized growth; key = c1ccc2c(c1)sc1ccccc12
Response line: 0.996 (inactive)

* * *

# experiment: chemical genetic growth profiling, strain panel (AID 1159580);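 note: tested at 20 µM; growth read once vehicle control cultures reached saturation at 30 °C; 1 = growth at the plate median or of vehicle wells; lower values mean less growth of the strain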
# setup conditions: S. cerevisiae deletion strains, growth OD, locus YNL161W, strain CBK1, hits give low values
The whole screen tested about 5,500 compounds, of which about 2,000 (36%) were called active. Roughly 18% stayed inconclusive and do not appear here. The list shows a part of the results.
Property: normalized growth; scope: individual compounds
API doc: respond with a numeric literal and nothing else, no unit.

Sample records with normalized growth:
Fc1cc(I)ccc1Nc1ccnc2cc(Cl)ccc12 : 0.983
O=C(Oc1cccc2[nH]ccc12)c1ccc(C(F)(F)F)cc1 : 0.987
Cc1cc(C)cc(Sc2ccc3nnc(-c4ccccc4)n3n2)c1 : 0.986
Cc1nn(C)c(C(=O)Sc2ccc(OC(F)(F)F)cc2)c1[N+](=O)[O-] : 0.98
CC1(C)CC(=O)C=C(Sc2nc3ccccc3o2)C1 : 0.967

Prompt line: Value lookup for normalized growth; key = Cc1cccc(NC(=S)N/N=C\c2ccc(F)cc2)c1
Response line: 0.969

Prompt line: Value lookup for normalized growth; key = CCCN(CCC)C(=S)NC(=O)c1cccc([N+](=O)[O-])c1
Response line: 0.959

Prompt line: Value lookup for normalized growth; key = O=C(c1csc(-c2ccc(Cl)cc2)c1)N1CCCCC1
Response line: 0.953

Prompt line: Value lookup for normalized growth; key = N#C/C(=N/Nc1ccc(F)cc1)C(=O)c1ccccc1
Response line: 0.863

Prompt line: Value lookup for normalized growth; key = COc1cccc(C2CCN(C(=O)c3cccc4ccccc34)CC2)c1
Response line: 0.992

Prompt line: Value lookup for normalized growth; key = Oc1c(Cl)cc(Cl)cc1C=Nc1nc(-c2ccc3ccccc3c2)cs1
Response line: 0.965

Prompt line: Value lookup for normalized growth; key = O=[N+]([O-])c1ccc(-c2noc(-c3ccno3)n2)o1
Response line: 0.103
